- assay-protocol: PK of voruciclib, daily dosing continuously (Table 4)
- Type: in vivo
- experimental-context: human, plasma, oral, 75 mg, Day 1, daily dosing continuously, mean; read-out: AUC0-24
measured-quantity: AUC(0-t) (ng·h/mL)
Provide the reading as a plain figure in ng·h/mL.

Query :: Look up AUC(0-t): CN1CC[C@@H](c2c(O)cc(O)c3c(=O)cc(-c4ccc(C(F)(F)F)cc4Cl)oc23)[C@@H]1CO
Result :: 1730

====

- Tested on: TOV-21G
- assay-protocol: 72-hour CellTiter-Glo 2.0 growth inhibition screen (single agent, 9x9 combination dose matrix)
- Format: cell-based
- experimental-context: Homo sapiens, TOV21G; TOV-21G, Ovary; Additional Single Agent Responses (inhibition, % I), 72 h
measured-quantity: pIC50
Just so you know, pIC50 here is -log10 of the concentration in molar units; reply with that number alone.

Query :: Name the reported pIC50 value associated with the compound CC[C@@H]1C(=O)N(C)c2cnc(Nc3ccc(C(=O)N[C@H]4CC[C@H](N5CCN(CC6CC6)CC5)CC4)cc3OC)nc2N1C(C)C
Result :: 7.94

Query :: Which pIC50 reading was recorded for the compound CN1CCN(c2ccc(OC(F)(F)F)c(Nc3ncc4c(n3)-c3c(c(C(N)=O)nn3CCO)CC4)c2)CC1 ?
Result :: 7.50

====

- assay-protocol: PK of voruciclib, 2 weeks of daily dosing followed by 1 week without dosing in a 21-day cycle (Table 3)
- Format: in vivo, human
- experimental-context: human, plasma, oral, 850 mg, Day 1, 2 weeks daily dosing/1 week off, mean; read-out: Vz/F
measured-quantity: Vd/F
Answer shape: numeric part, then the unit.

Query :: Form field: reported Vd/F of CN1CC[C@@H](c2c(O)cc(O)c3c(=O)cc(-c4ccc(C(F)(F)F)cc4Cl)oc23)[C@@H]1CO [Voruciclib]
Result :: 2150 L

====

- assay-protocol: PK of voruciclib, 2 weeks of daily dosing followed by 1 week without dosing in a 21-day cycle (Table 3)
- Type: in vivo, human
- experimental-context: human, plasma, oral, 850 mg, Day 13, 2 weeks daily dosing/1 week off, mean; read-out: Vz/F
- Text: Voruciclib half life is designated as t½ in the tables (expressed in hours). Voruciclib volume of distribution is designated as Vz/F (expressed in liters).
measured-quantity: Vd/F (L)
Return type: number; implicit unit L.

Query :: // query Vd/F value for entry CN1CC[C@@H](c2c(O)cc(O)c3c(=O)cc(-c4ccc(C(F)(F)F)cc4Cl)oc23)[C@@H]1CO [Voruciclib]
Result :: 315

====

- assay-protocol: PK of voruciclib, 2 weeks of daily dosing followed by 1 week without dosing in a 21-day cycle (Table 3)
- Type: in vivo, human
- experimental-context: human, plasma, oral, 300 mg, Day 1, 2 weeks daily dosing/1 week off, mean; read-out: Vz/F
measured-quantity: Vd/F (L)
API: value field is a number in L; no unit string.

Query :: // query Vd/F value for entry CN1CC[C@@H](c2c(O)cc(O)c3c(=O)cc(-c4ccc(C(F)(F)F)cc4Cl)oc23)[C@@H]1CO [Voruciclib]
Result :: 3980

====

- assay-protocol: PK of voruciclib, 2 weeks of daily dosing followed by 1 week without dosing in a 21-day cycle (Table 3)
- Format: in vivo, human
- experimental-context: human, plasma, oral, 300 mg, Day 13, 2 weeks daily dosing/1 week off, n = 1
measured-quantity: half-life (h)
Hi! Could you send only the number? It should be in h, unit omitted.

Query :: # input compound: CN1CC[C@@H](c2c(O)cc(O)c3c(=O)cc(-c4ccc(C(F)(F)F)cc4Cl)oc23)[C@@H]1CO ; wanted: its half-life
Result :: 16.2

====

- Tested on: HCC44
- assay-protocol: 72-hour CellTiter-Glo 2.0 growth inhibition screen (single agent, 9x9 combination dose matrix)
- Assay type: cell-based
- experimental-context: HCC44, Lung; Additional Single Agent Responses (inhibition, % I), 72 h
measured-quantity: pEC50
Please keep in mind that pEC50 is minus log10 of the molar concentration; only the number is needed.

Query :: Any idea what pEC50 was measured for CN1CC[C@@H](c2c(O)cc(O)c3c(=O)cc(-c4ccc(C(F)(F)F)cc4Cl)oc23)[C@@H]1CO [MEI-522(Voruciclib)] ?
Result :: 6.11

====

- assay-protocol: PK of voruciclib, 2 weeks of daily dosing followed by 1 week without dosing in a 21-day cycle (Table 3)
- Assay type: in vivo, human
- experimental-context: human, plasma, oral, 300 mg, Day 13, 2 weeks daily dosing/1 week off, mean
measured-quantity: Cmax (ng/mL)
Numbers only; they are read as ng/mL.

Query :: Recorded Cmax for CN1CC[C@@H](c2c(O)cc(O)c3c(=O)cc(-c4ccc(C(F)(F)F)cc4Cl)oc23)[C@@H]1CO , please?
Result :: 2100

====

- assay-protocol: PK of voruciclib, daily dosing continuously (Table 4)
- Assay type: in vivo
- experimental-context: human, plasma, oral, 150 mg, Day 15, daily dosing continuously, mean; read-out: AUC0-24
measured-quantity: AUC(0-t) (ng·h/mL)
Number only, in ng·h/mL; omit the unit.

Query :: Requested read-out: AUC(0-t). Entry: CN1CC[C@@H](c2c(O)cc(O)c3c(=O)cc(-c4ccc(C(F)(F)F)cc4Cl)oc23)[C@@H]1CO [Voruciclib]
Result :: 16600

====

- assay-protocol: PK of voruciclib, 2 weeks of daily dosing followed by 1 week without dosing in a 21-day cycle (Table 3)
- Format: in vivo, human
- experimental-context: human, plasma, oral, 850 mg, Day 13, 2 weeks daily dosing/1 week off, mean
measured-quantity: Cmax (ng/mL)
Give the quantity in ng/mL, number only.

Query :: Value lookup for Cmax; key = CN1CC[C@@H](c2c(O)cc(O)c3c(=O)cc(-c4ccc(C(F)(F)F)cc4Cl)oc23)[C@@H]1CO [Voruciclib]
Result :: 4450

====

- assay-protocol: PK of voruciclib, daily dosing continuously (Table 4)
- Type: in vivo
- experimental-context: human, plasma, oral, 250 mg, Day 15, daily dosing continuously, mean; read-out: Vz/F
measured-quantity: Vd/F (L)
Write down the numeric answer in L and omit the unit.

Query :: Recorded Vd/F of CN1CC[C@@H](c2c(O)cc(O)c3c(=O)cc(-c4ccc(C(F)(F)F)cc4Cl)oc23)[C@@H]1CO , please.
Result :: 259

====

- assay-protocol: PK of voruciclib, daily dosing continuously (Table 4)
- Format: in vivo
- experimental-context: human, plasma, oral, 250 mg, Day 1, daily dosing continuously, mean; read-out: AUC0-24
measured-quantity: AUC(0-t) (ng·h/mL)
Reply with just the number (in ng·h/mL).

Query :: # AUC(0-t) lookup, item CN1CC[C@@H](c2c(O)cc(O)c3c(=O)cc(-c4ccc(C(F)(F)F)cc4Cl)oc23)[C@@H]1CO
Result :: 6110

====

- assay-protocol: PK of voruciclib, daily dosing continuously (Table 4)
- Type: in vivo
- experimental-context: human, plasma, oral, 150 mg, Day 1, daily dosing continuously, median
measured-quantity: Tmax (h)
Only the number, expressed in h, is required.

Query :: Which Tmax reading was recorded for the molecule CN1CC[C@@H](c2c(O)cc(O)c3c(=O)cc(-c4ccc(C(F)(F)F)cc4Cl)oc23)[C@@H]1CO ?
Result :: 6

====

- assay-protocol: PK of voruciclib, daily dosing continuously (Table 4)
- Format: in vivo
- experimental-context: human, plasma, oral, 75 mg, Day 1, daily dosing continuously, mean
- Excerpt: Voruciclib half life is designated as t½ in the tables (expressed in hours). Voruciclib volume of distribution is designated as Vz/F (expressed in liters).
measured-quantity: Cmax (ng/mL)
Report the figure in ng/mL without appending any unit label.

Query :: Find the recorded Cmax belonging to CN1CC[C@@H](c2c(O)cc(O)c3c(=O)cc(-c4ccc(C(F)(F)F)cc4Cl)oc23)[C@@H]1CO and report it.
Result :: 125

====

- Test system: SW48 KRAS (G12D/+)
- assay-protocol: 72-hour CellTiter-Glo 2.0 growth inhibition screen (single agent, 9x9 combination dose matrix)
- Format: cell-based
- experimental-context: Homo sapiens; SW48 KRAS (G12D/+), Colorectal; Additional Single Agent Responses (inhibition, % I), 72 h
measured-quantity: IC50
Field note: include the unit after the figure.

- CN1CCN(c2ccc(OC(F)(F)F)c(Nc3ncc4c(n3)-c3c(c(C(N)=O)nn3CCO)CC4)c2)CC1: 17.8 nM

Now look at this one.
Query :: Return IC50 measured with SW48 KRAS (G12D/+) given this compound: CC[C@@H]1C(=O)N(C)c2cnc(Nc3ccc(C(=O)N[C@H]4CC[C@H](N5CCN(CC6CC6)CC5)CC4)cc3OC)nc2N1C(C)C
Result :: 4.8 nM

====

- assay-protocol: PK of voruciclib, 2 weeks of daily dosing followed by 1 week without dosing in a 21-day cycle (Table 3)
- Format: in vivo, human
- experimental-context: human, plasma, oral, 850 mg, Day 1, 2 weeks daily dosing/1 week off, mean
measured-quantity: AUC(0-inf) (µg·h/mL)
Answer format: numeric, µg·h/mL implied, no suffix.

Query :: // returns reported AUC(0-inf) for input CN1CC[C@@H](c2c(O)cc(O)c3c(=O)cc(-c4ccc(C(F)(F)F)cc4Cl)oc23)[C@@H]1CO
Result :: 109
